- ASSAY_NAME: Solubility of inhibitors in different solvents
- Type: physicochemical
- RUN_CONDITIONS: oil or lipid, thermodynamic from solid; Oleic rich oil, 30°C; read-out: Solubility
PARAMETER_MEASURED: solubility at 24 h (µM)

> print(dat)
                                   compound  parameter.measured  measured.value
1  O=C(Nc1ccc(OC(F)(F)F)cc1)N[C@H]1CC[C@H](Oc2ccc(C(=O)O)cc2)CC1 [1,728]  solubility at 24 h             310

###

- ASSAY_NAME: Solubility of inhibitors in different solvents
- Type: physicochemical
- RUN_CONDITIONS: organic solvent or mixture, thermodynamic from solid; PEG200, 30°C; read-out: Solubility in mg/mL
PARAMETER_MEASURED: solubility at 24 h

> print(dat)
                              smiles.string  measured.value
1  O=C(Nc1ccc(OC(F)(F)F)cc1)N[C@H]1CC[C@H](Oc2ccc(C(=O)O)cc2)CC1        85 mg/mL

All figures here come from paper PMC7479175.
